CHO-hCD40L-driven DC Activation IL-12 EC50 values for the binders below.
- measurement.target: T1, human CD40L, membrane-bound on cells (human, UniProt P29965 1-261)
- T1 sequence: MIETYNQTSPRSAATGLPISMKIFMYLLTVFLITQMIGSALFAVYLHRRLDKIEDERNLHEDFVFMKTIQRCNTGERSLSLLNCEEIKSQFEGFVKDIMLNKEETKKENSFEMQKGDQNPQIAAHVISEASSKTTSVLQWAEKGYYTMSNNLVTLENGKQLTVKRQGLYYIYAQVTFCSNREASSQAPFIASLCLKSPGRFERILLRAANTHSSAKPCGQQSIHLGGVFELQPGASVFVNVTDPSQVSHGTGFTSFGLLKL
- protocol: cell-based or functional assay
Reply with just the number (in nM).

Completed entries (count: 2):
1. BMS2h-572-632 (other) VH: EVQLLESGGGLVQPGGSLRLSCAASGFTFKWQLMGWVRQAPGKGLEWVSGIEGPGDVTYYADSVKGRFTISRDNSKNTLYLQMNSLRAEDTAVYYCVKVGKDSKSDYRGQGTLVTVSS: 241
2. BMS2h-572-622 (other) VH: EVQLLESGGGLVQPGGSLRLSCAASGFTFNWQLMGWVRQAPGKGLEWVSGIEGPGDVTYYADSVKGRFTISRDNSKNTLYLQMNSLRAEDTAVYYCVKVGKDSTSDYRGQGTLVTVSS: 281

Per the record, BMS2h-503-1 (other) VL: DIQMTQSPSSLSASVGDRVTITCRASHHIQRYLSWYQQKPGKAPKLLILWGSQLQSGVPSRFSGSGSGTDFTLTISSLQPEDFATYYCGQWWAPPQTFGQGTKVEIKR has CHO-hCD40L-driven DC Activation IL-12 EC50 of 756
